Listed next: entries and their corresponding Activity.
# System: HEK293
# Test description: Cytotoxicity against human HEK293 cells at 40 uM
# Format: cell-based
# Assay conditions: hek293, 40 µM
Outcome measure: Activity (%)

> print(dat)
                                   molecule  outcome.measure  value.observed
1  CC(C)=CCC1(CC=C(C)C)C(=O)[C@](O)(CC=C(C)C)C(=O)C2=C1O[C@H](c1ccccc1)C[C@H]2O (relative stereo)         Activity              34
2  CC(C)=CCc1cc2c(cc1O)OC[C@@]1(O)c3cc4c(cc3O[C@@H]21)OCO4         Activity              27
3  COc1cc(OC)c2c(c1CC=C(C)C)O[C@H](c1ccccc1)C[C@H]2OC         Activity              87
4  CC(C)=CCC1(CC=C(C)C)C(=O)C(=O)C2=C1O[C@H](c1ccccc1)C[C@H]2O (relative stereo)         Activity             101
5  CC(C)=CCC1(CC=C(C)C)C(=O)[C@@](O)(CC=C(C)C)C(=O)C2=C1O[C@H](c1ccccc1)C[C@H]2O (relative stereo)         Activity              71
